- assay comment: mn = molality of the nth substance listed, in mol/kg
- assay setup: 310.15 K; 101.3 kPa; Liquid; Vibrating tube method; m2 = 0
readout name: mass density (kg/m3)

O [water] + C[C@H](N)C(=O)O ... 993.38
O [water] + CCC(N)C(=O)O ... 993.32
O [water] + C[C@@H](O)[C@H](N)C(=O)O ... 993.32
O [water] + CCCCn1cc[n+](C)c1.[Br-] ... 993.37
O [water] + NCC(=O)O ... 993.37
O [water] + N[C@@H](CO)C(=O)O ... 993.36
